pIC50 values by entry
Biological target: N+/K+ ATPase alpha-4/beta-1 (Rattus norvegicus, UniProt Q64541)
Sequence (Q64541 whole entry, other chains not shown): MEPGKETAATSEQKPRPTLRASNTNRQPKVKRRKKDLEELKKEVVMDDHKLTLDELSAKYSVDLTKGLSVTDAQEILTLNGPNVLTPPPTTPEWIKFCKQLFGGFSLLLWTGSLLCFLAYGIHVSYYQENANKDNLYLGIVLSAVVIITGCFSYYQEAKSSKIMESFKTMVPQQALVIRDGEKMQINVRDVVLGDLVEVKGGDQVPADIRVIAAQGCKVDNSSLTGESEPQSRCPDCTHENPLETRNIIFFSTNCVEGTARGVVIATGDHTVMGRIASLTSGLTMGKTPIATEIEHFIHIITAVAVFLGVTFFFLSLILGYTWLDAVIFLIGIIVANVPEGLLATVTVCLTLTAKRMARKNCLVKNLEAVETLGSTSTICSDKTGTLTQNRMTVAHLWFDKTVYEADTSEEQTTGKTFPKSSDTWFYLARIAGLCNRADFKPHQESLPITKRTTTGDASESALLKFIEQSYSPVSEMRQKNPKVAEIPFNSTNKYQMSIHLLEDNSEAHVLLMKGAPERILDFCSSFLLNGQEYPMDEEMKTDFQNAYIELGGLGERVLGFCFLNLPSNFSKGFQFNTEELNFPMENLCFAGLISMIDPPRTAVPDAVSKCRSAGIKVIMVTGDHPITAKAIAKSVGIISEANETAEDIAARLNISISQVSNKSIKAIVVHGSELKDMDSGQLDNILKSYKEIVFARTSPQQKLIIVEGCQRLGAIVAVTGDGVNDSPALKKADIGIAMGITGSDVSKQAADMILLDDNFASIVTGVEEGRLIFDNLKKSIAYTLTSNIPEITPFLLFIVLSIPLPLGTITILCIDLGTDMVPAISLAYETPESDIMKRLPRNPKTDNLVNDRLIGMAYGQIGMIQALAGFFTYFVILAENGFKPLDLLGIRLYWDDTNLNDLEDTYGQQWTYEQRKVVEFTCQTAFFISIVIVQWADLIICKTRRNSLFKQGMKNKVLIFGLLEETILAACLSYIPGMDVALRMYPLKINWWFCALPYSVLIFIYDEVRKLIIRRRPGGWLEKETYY
Assay: Inhibition of recombinant rat Na+/K+-ATPase alpha4/beta1 expressed in baculovirus infected insect Sf9 cell membranes using [gamma-32P]ATP as substrate preincubated for 10 mins followed by substrate addition measured after 30 mins in presence of Na+, K+ and Mg2+ by liquid scintillation counting
pIC50: −log10 of the molar value.

COCO[C@H]1C[C@H]2OC(C)(C)OC[C@]23[C@@H]2[C@@H](CC[C@]3(O)C1)[C@@]1(OCOC)CC[C@H](C(O)C(F)(F)F)[C@@]1(C)C[C@H]2OCOC (mixture of isomers): 5.23 to 5.25

Then this compound:
Look up and state reported pIC50 for C[C@@H]1O[C@@H](O[C@H]2C[C@@H](O)[C@]3(CO)[C@H]4[C@H](O)C[C@]5(C)[C@@H](C(O)c6cn(Cc7ccc(F)cc7)nn6)CC[C@]5(O)[C@@H]4CC[C@]3(O)C2)[C@H](O)[C@H](O)[C@H]1O (mixture of isomers) 7.36 to 7.89

---

Target: Voltage-gated inwardly rectifying potassium channel KCNH2 (Homo sapiens)
Sequence (Q12809 whole entry): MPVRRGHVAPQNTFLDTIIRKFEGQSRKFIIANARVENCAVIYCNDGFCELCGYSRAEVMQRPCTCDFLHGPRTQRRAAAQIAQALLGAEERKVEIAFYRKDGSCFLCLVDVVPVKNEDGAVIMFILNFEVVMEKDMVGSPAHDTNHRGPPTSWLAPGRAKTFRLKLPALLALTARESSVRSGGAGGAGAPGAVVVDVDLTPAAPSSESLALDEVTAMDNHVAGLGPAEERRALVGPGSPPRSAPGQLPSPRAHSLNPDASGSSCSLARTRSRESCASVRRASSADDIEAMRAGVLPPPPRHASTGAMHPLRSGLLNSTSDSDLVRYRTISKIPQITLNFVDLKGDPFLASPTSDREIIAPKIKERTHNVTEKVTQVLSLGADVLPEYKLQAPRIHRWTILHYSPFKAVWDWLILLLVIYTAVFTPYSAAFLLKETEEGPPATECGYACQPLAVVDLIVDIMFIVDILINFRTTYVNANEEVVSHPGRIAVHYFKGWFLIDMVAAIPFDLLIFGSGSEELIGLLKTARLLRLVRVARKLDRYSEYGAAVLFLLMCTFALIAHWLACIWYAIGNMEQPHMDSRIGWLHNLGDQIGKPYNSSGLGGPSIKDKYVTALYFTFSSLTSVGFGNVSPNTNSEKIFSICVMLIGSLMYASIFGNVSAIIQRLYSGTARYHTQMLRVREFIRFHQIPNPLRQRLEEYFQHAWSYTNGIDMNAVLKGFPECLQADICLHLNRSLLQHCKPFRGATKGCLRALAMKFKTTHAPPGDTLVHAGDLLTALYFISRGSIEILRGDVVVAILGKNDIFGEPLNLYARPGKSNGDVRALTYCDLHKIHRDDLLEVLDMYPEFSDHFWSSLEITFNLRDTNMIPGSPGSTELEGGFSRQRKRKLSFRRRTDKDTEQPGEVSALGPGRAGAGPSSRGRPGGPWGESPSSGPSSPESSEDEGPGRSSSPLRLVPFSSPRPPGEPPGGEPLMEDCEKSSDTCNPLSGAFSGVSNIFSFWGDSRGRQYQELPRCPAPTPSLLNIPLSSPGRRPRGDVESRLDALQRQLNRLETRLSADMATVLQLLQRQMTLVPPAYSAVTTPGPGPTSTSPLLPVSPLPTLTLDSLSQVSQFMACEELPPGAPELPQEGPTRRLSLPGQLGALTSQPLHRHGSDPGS
Assay: Displacement of Tracer Red from human ERG expressed in cell membranes by fluorescence polarization assay
OUTCOME MEASURE: IC50 (µM)
Output spec: scalar in µM, unitless text.

Report IC50, nothing else, for this compound: `C[C@@H]1O[C@@H](O[C@H]2C[C@@H](O)[C@]3(CO)[C@H]4[C@H](O)C[C@]5(C)[C@@H](C6=CC(=O)OC6)CC[C@]5(O)[C@@H]4CC[C@]3(O)C2)[C@H](O)[C@H](O)[C@H]1O` 5.8

Every entry's value here was drawn from ChEMBL document CHEMBL4033781.
